Data origin, for the record: paper PMC10397247

Molecular target: T1, 4H678-AA
T1 chain: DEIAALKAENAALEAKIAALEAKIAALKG
Test: two-hybrid library CCmax;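 further: natural log of median RNA to DNA barcode read ratio; higher means stronger binding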
Conditions: mean of both orientations
// NB: equality with -0.8 counts as false; only interaction score strictly below is true

In: Field: below-cutoff. Rule: recorded interaction score strictly less than -0.8. Subject: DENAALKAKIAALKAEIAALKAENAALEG [4H1867-AA]
Out: true

In: Lab note: confirm whether the reported interaction score for this binder is below -0.8, equality not counting. binder: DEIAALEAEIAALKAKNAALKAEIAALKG [4H122-AA]
Out: false

In: Would you kindly verify if interaction score of DKIAALEAENAALKAKIAALEAKIAALEG [4H2277-AA] is strictly less than -0.8?
Out: false

In: For DEIAALEAENAALKAKIAALKAEIAALKG [4H234-AA] , is the recorded interaction score below the cut-off of -0.8?
Out: false
